system: RXF 393; assay: NCI tumour cell line growth inhibition, 48 h
Activity calls are given as the source filed them. No stated cut-off is given here; in the data, active = GI50 up to about 1.1 µM and inactive = higher.
Your response should consist of one outcome taken from 1.0 = active, 0.0 = inactive

compound	className
CCN(CC)CCn1c(C(C)(C)C)nc2ccccc21	0.0
CC(C)C1=CC2=CC[C@@H]3[C@](C)(CCC[C@@]3(C)C(=O)O)[C@H]2CC1	0.0
COc1cc2c(cc1O)[C@]1(Cc3ccc4c(c3C1=O)OCO4)N(C)CC2	0.0
C(=C/CCCN1O[C@@H](CCCCCCCCc2cccnc2)[C@H]2CCC[C@H]21)/CCCCCCCCCc1cccnc1	0.0
O=C(CSc1nc2ccc(I)cc2c(=O)n1Cc1ccccc1)Nc1ccc(Br)cc1	0.0

Asked: State the result this test recorded for COc1ccc(OC)c(/C=C2/C(=O)N/C(=N\C(C)=O)N2C)c1 .
Given back: 0.0

Asked: State the result this test recorded for O=C(O)CSc1cc(-c2ccccc2)nc2ccccc12 .
Given back: 0.0

Asked: What did this assay record as the result for O=[N+]([O-])c1cc(/C=N\NS(=O)(=O)c2ccc(Cl)cc2)c(O)c([N+](=O)[O-])c1 ?
Given back: 0.0

Asked: Returns: the outcome recorded for COc1cccc(O)c1-c1cc(=O)c2c(O)c(OC)c(OC)c(OC)c2o1 in this assay.
Given back: 0.0

Asked: Which outcome was assigned to CC1(C)Cc2cc(C(=O)O)c3c(c2C1=O)COCC3 in this test?
Given back: 0.0

###

# key: entry, value: GI50
test system: UACC-62; assay: NCI tumour cell line growth inhibition, 48 h
The source made the active and inactive calls. Rule as the data show it: active = GI50 up to about 1.1 µM and inactive = higher.

Solved cases (3 shown):
molecule	measuredOn	observedValue
Cc1ccc(C(=O)N2CCCCC2)cc1/N=N/N(C)C	UACC-62	> 100 µM (inactive)
CCC(=O)Nc1ccc(NCC(=O)Nc2ccc(OC)cc2)cc1	UACC-62	19.1 µM (inactive)
CN(C)S(=O)(=O)c1nc(Cl)c2nc[nH]c2n1	UACC-62	> 100 µM (inactive)

Asked: Check the records and state GI50 for O=C1C=CC2OC(c3ccccc3)C(O)C2O1 (stereo unspecified)
Given back: 4.94 µM (inactive)

Asked: Please give measured GI50 of the following entry: CC12CC3CC(C)(C1)CC(N=[N+]=[N-])(C3)C2
Given back: > 100 µM (inactive)

Asked: Please report the measured GI50 for COC(=O)C1=C(OC(=O)/C(=C/c2ccccc2)c2ccc([N+](=O)[O-])cc2)C(C(=O)OC)[C@@]2(O)[C@@H](C(=O)OC)[C@H](C)C[C@@H]1[C@@H]2C(=O)OC (stereo partly specified)
Given back: > 100 µM (inactive)

Asked: Report GI50, nothing else, for this molecule: CC(C)(C)OC(=O)NCC(=O)N1CCCN(C(=O)CNC(=O)OC(C)(C)C)CC1
Given back: > 100 µM (inactive)

###

tested on: M14; experiment: NCI tumour cell line growth inhibition, 48 h
Activity calls are given as the source filed them. Cut-off read from the data, not from the text of the source: active = GI50 up to about 1.1 µM and inactive = higher.
# valid calls are active, inactive; nothing else

A selection of reference data follows.
In [3]: df
Out[3]:
                                   compound  classname
0  O=C(c1ccccc1)N1C(=S)N(c2ccc([N+](=O)[O-])cc2)C(=N/c2ccccc2)/C1=N\c1ccccc1   inactive
1  Cc1ccc(/C=c2\c(=O)[nH]c3nc4ccccc4c(=O)n23)cc1   inactive
2  COC(=O)C[C@](O)(CCCC(C)(C)O)C(=O)O[C@@H]1C(OC)=C[C@]23CCCN2CCc2cc4c(cc2[C@H]13)OCO4 [OMACETAXINE MEPESUCCINATE]   inactive
3  CCCC(=O)OC1CC(n2cc(F)c(=O)[nH]c2=O)OC1CO (stereo not drawn)     active
4  N#CC1(C#N)C=CC(=C2OCC3CCCN23)C=C1 (stereo not drawn)   inactive

Asked: Per the records of this test, what outcome belongs to CN1CCc2c1nc(-c1ccccc1)c1c2N(C)CC1 ?
Given back: inactive

Asked: Each compound tested received a call. Report the one for Brc1ccc2[nH]cc(-c3nc(-c4c[nH]c5ccccc45)cs3)c2c1 .
Given back: inactive

Asked: In this assay, the call recorded for Cc1cc(Br)cc(C)c1NC(=O)C(=O)C(C(=O)c1ccc(Cl)c(Cl)c1)C1OC(=O)c2ccccc21 (stereo not drawn) was what?
Given back: inactive

Asked: Would you mind telling me which call this test gave FC(F)(F)c1cccc2ns[s+]c12 ?
Given back: inactive

Asked: # lookup: test call for CC(=O)O/N=C(Cl)/C(Cl)=N/OC(C)=O
Given back: inactive

###

tested on: OVCAR-4; assay: NCI tumour cell line growth inhibition, 48 h
The source made the active and inactive calls. No stated cut-off is given here; in the data, active = GI50 up to about 1.1 µM and inactive = higher.
outcomeMeasure: GI50

In [3]: df
Out[3]:
                                   molecule        observedvalue
0  COc1cc(S(=O)(=O)Nc2ccc(-c3csc(/N=C\c4ccccc4O)n3)cc2)ccc1Cl   44.9 µM (inactive)
1                 CC1(C)Oc2ccc(Cl)cc2C12CC2   13.8 µM (inactive)
2  CCN(CC)C(=O)C(C)n1cc(C)c(=O)[nH]c1=O (stereo unspecified)  > 100 µM (inactive)

Asked: Provide only the value of recorded GI50 for N#CC(CC(=O)O)=C(c1ccccc1)c1ccccc1
Given back: > 100 µM (inactive)

Asked: Dear colleague, please send me the reported GI50 for Fc1cccc(C2SCc3nc4cc5ccccc5cc4n32)c1 (stereo unspecified) when you can.
Given back: 90.8 µM (inactive)

###

tested on: HCC 2998; assay: NCI tumour cell line growth inhibition, 48 h
Activity calls are given as the source filed them. Cut-off read from the data, not from the text of the source: active = GI50 up to about 1.1 µM and inactive = higher.
outcomeMeasure: GI50

Example entries and their recorded answers appear below.
In [3]: df
Out[3]:
                                   molecule        observedvalue
0  CCCCCCCCC1=CCC(CN(C)C)C1=O (configuration not stated)     14 µM (inactive)
1  C[Si](C)(C)/C=C/CN1C(=O)CCC1O (configuration not stated)  > 100 µM (inactive)
2  COC(=O)c1c(C(=O)OC)c2ccccn2c1-c1cc(C)cc2c1C(=O)C=CC2=O   13.9 µM (inactive)
3  CC1(C)/C(=N\O)C2(OS(=O)(=O)C(F)(F)F)CCC1C2 (configuration not stated)  > 100 µM (inactive)
4  CC(C)(C)OC(=O)NCC(=O)N1CCCN(C(=O)CNC(=O)OC(C)(C)C)CC1  > 100 µM (inactive)

Asked: Look up GI50 of CN1C(CC(O)c2ccccc2)CCCC1CC(O)(c1ccccc1)c1ccccc1 (configuration not stated) and report it.
Given back: 22.9 µM (inactive)

Asked: Respond only with GI50 recorded for O=C(c1ccc(F)cc1)c1cccc(C(=O)c2ccc(F)cc2)n1
Given back: > 100 µM (inactive)

###

system: UO-31; assay: NCI tumour cell line growth inhibition, 48 h
Calls of active or inactive are those of the source. No stated cut-off is given here; in the data, active = GI50 up to about 1.1 µM and inactive = higher.
Valid outcomes are listed here; reply with one: 1 for active, -1 for inactive

compound	className
COC(=O)CCC(C)[C@H]1CCC2C3C(C[C@H](OC(C)=O)[C@@]21C)[C@@]1(C)CCC2(C[C@H]1C[C@H]3OC(C)=O)OOC1(CCC(C(C)(C)C)CC1)OO2 (stereo not given in full)	-1
CCOP(=O)(OCC)Oc1c(OC)c2[nH]c(C(=O)OC)cc2c2c(C(=O)O)c[nH]c12	-1
CN1C(=O)c2ccccc2NC(=O)C12O[C@@H]2c1cccc(O)c1 (stereo not given in full)	-1
CC1OC(OC2C(O)COC(OC3C(C)OC(OC4C(OC(=O)[C@]56CCC(C)(C)C[C@@H]5C5=CCC7[C@@]8(C)C[C@H](O)[C@H](OC9OC(CO)C(O)C(O)C9O)[C@@](C)(CO)[C@@H]8CC[C@@]7(C)[C@]5(C)CC6)OCC(O)C4O)C(O)C3OC3OCC(O)(CO)C3O)C2O)C(O)C(O)C1O (stereo not given in full)	-1
CC(C)(C)C1CCC2c3c([nH]c4ccccc34)C3C(=O)N(c4ccccc4)C(=O)C3C2C1 (stereo not given)	-1
C/C=C\C(CC(=O)O)CC(=O)NCCC1CN(S(=O)(=O)C(F)(F)F)c2ccccc21 (stereo not given)	-1
COC(=O)C[C@](O)(CCCC(C)(C)O)C(=O)O[C@@H]1C(OC)=C[C@]23CCCN2CCc2cc4c(cc2[C@H]13)OCO4 [OMACETAXINE MEPESUCCINATE]	1
Brc1ccc2[nH]cc(-c3nc(-c4c[nH]c5ccccc45)cs3)c2c1	-1

Asked: Tell me the recorded outcome of this test for N#CC1(C#N)C=CC(=C2OCC3CCCN23)C=C1 (stereo not given) .
Given back: -1

Asked: # outcome recorded in this test, key = CCSc1nc(COC(=O)NC)c(COC(=O)NC)n1C
Given back: -1

Asked: What is the recorded call for this compound in the test? C[C@@]1(CBr)C[C@@](C)(/C=C/Cl)[C@@H](Cl)C[C@H]1Cl
Given back: -1

Asked: Per the assay record, what outcome was assigned to CC(CSC(=N)N)C(N)=O (stereo not given) ?
Given back: -1

Asked: Answer briefly: the call reported for CC(C)=CCc1c(O)ccc2ccc(=O)oc12 in this assay.
Given back: -1

Asked: Tell me the assay call for O=C1CCC2(c3ccccc3)Nc3cc(Cl)ccc3N12 (stereo not given) please.
Given back: -1

Asked: Short answer needed: outcome of this test for Cc1cc2cccc(Cl)c2nc1C(=O)c1ccccc1 ?
Given back: -1

Asked: Recorded call for CC(=O)OC1C=C(C=O)C(O)(C=O)C2(C)CCCC(C)(C)C12 (stereo not given) ?
Given back: -1
